- assayed target: T1, human GITR (amino acids M1-V241, NCBI Accession #NP_004186.1) expressed on cells (human, UniProt Q9Y5U5 26-241)
- T1 sequence: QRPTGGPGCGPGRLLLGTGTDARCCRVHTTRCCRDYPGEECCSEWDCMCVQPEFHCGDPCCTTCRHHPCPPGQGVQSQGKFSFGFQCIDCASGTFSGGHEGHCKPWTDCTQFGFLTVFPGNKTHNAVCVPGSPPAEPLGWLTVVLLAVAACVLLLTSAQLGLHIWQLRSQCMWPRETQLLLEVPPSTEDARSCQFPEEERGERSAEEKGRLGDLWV
- assay method text: cell-based or functional assay
For each of the binders below, state its fold activation, T-cell proliferation, plate-bound Ab 10.6 nM, donor 7.
Param answer (str): number followed by unit.

>>> test_value("H4H14525P (antibody, human IgG4, V domains shown, human IgG4 (H4H)) VH: QVQLVESGGGVVQPGRSLRLSCAASGFTFSSYGMHWVRQAPGKGLEWVAVIWYVGSNKYYGESVKGRFTISRDNSKNTLYLQMNSLRDEDTAIYYCARGGQLGSFYYYGMDVWGQGTTVTVSS VL: DIQMTQSPSSLSASVGDRVTITCRASQGIRNDLGWYQQKPGKAPKRLIYDVSSLQSGVPSRFSGSGSGTEFTLTISSLQPEDLATYYCLQHNSYPWTFGQGTKVEIK")
"2 fold"
>>> test_value("H4H14528P (antibody, human IgG4, V domains shown, human IgG4 (H4H)) VH: QVQLVESGGGVVQPGRSLRISCAASGFTFNNYGFHWVRQAPGRGLEWVAVIWYSGSNKYYGDSVKGRFTISRDNSKNILYLQMNSLRAEDTAIYYCARFPFSSSWLLDYWGQGTLVTVSS VL: DIQLTQSPSFLSASVGDRVTFTCWASQGISDYLAWYQQKPGKAPKLLIYAASALQSGVPSRFSGSGSGTEFTLTVSSLQPEDFATYYCQQLNSYPFTFGPGTKVDIK")
"5 fold"

From here, focus on the item given below.
q: fold activation, T-cell proliferation, plate-bound Ab 10.6 nM, donor 7 lookup needed for H4H14516P (antibody, human IgG4, V domains shown, human IgG4 (H4H)) VH: EVQLVESGGGLVQPGGSLRLSCAASGFTFSNYEMYWVRQAPGKGLEWVSYISSSGTTIYYADSVKGRFSVSRENARSSLYLQMNSLRVEDSAVYFCAKYNWNSFYGLDVWGQGTTVTVSS VL: AIQMTQSPSSLSASVGDRVTITCRASQDIRNDLGWYQQKPGKAPKLLISAASSLQGGVPSRFSGSGSGTDFTLTISSLQPADFATYYCLQEYNYALTFGGGTKVEIK , thanks.
a: 4 fold
